target: Somatostatin receptor type 2 (Rattus norvegicus); assay: In vivo tumor accumulation was determined in nude mice bearing rat pancreatic AR42J tumor cell expressed with somatostatin receptor type 2;60 min p.i.; (n=3-5); format: functional, organism-based; details: AR-42J, tested as the 123I-labelled form
Quantity Name: ID/g (%)
Record the value in %, omitting the unit from your answer.

Please review the following examples before continuing.
Substance Smiles | ID/g [%]
C[C@@H](O)[C@H](CO)NC(=O)[C@@H]1CSSC[C@H](NC(=O)[C@H](Cc2ccccc2)NC[C@]2(O)OC[C@H](O)[C@@H](O[C@@H]3O[C@@H](CO)[C@@H](O)[C@H](O)[C@@H]3O)[C@@H]2O)C(=O)N[C@@H](Cc2ccc(O)c(I)c2)C(=O)N[C@H](Cc2c[nH]c3ccccc23)C(=O)N[C@@H](CCCCN)C(=O)N[C@@H]([C@@H](C)O)C(=O)N1 | 5.2
C[C@@H](O)[C@H](CO)NC(=O)[C@@H]1CSSC[C@H](NC(=O)[C@H](Cc2ccccc2)NC[C@]2(O)OC[C@H](O)[C@@H](O)[C@@H]2O)C(=O)N[C@@H](Cc2ccc(O)c(I)c2)C(=O)N[C@H](Cc2c[nH]c3ccccc23)C(=O)N[C@@H](CCCCN)C(=O)N[C@@H]([C@@H](C)O)C(=O)N1 | 8.7

Request: I have this compound here, `C[C@@H](O)[C@H](NC(=O)[C@@H]1CSSC[C@H](NC(=O)[C@@H](Cc2ccccc2)NC[C@H]2O[C@H](O)[C@H](O)[C@@H](O)[C@@H]2O)C(=O)N[C@@H](Cc2ccc(O)c(I)c2)C(=O)N[C@H](Cc2c[nH]c3ccccc23)C(=O)N[C@@H](CCCCN)C(=O)N[C@@H]([C@@H](C)O)C(=O)N1)C(=O)O` , and I need its recorded ID/g.
Response: 20.5

----------
target: Somatostatin receptor type 2 (Homo sapiens); test: In vitro inhibition of [125I][Leu8,D-Trp22,Tyr25] somatostatin 28 binding to human somatostatin receptor type 2 expressed in CCL39 cells; (n=3)
Overview of recorded IC50 for various molecules
Record the value in nM, omitting the unit from your answer.

Please review the following examples before continuing.
Substance Smiles | Unit String | IC50
C[C@@H](O)[C@H](NC(=O)[C@@H]1CSSC[C@H](NC(=O)[C@@H](Cc2ccccc2)NC[C@@]2(O)OC[C@@H](O)[C@@H](O)[C@@H]2O)C(=O)N[C@@H](Cc2ccc(O)c(I)c2)C(=O)N[C@H](Cc2c[nH]c3ccccc23)C(=O)N[C@@H](CCCCN)C(=O)N[C@@H]([C@@H](C)O)C(=O)N1)C(=O)O | nM | 2
C[C@@H](O)[C@H](CO)NC(=O)[C@@H]1CSSC[C@H](NC(=O)[C@@H](Cc2ccccc2)NC[C@]2(O)OC[C@H](O)[C@@H](O[C@@H]3O[C@@H](CO)[C@@H](O)[C@H](O)[C@@H]3O)[C@@H]2O)C(=O)N[C@@H](Cc2ccc(O)c(I)c2)C(=O)N[C@H](Cc2c[nH]c3ccccc23)C(=O)N[C@@H](CCCCN)C(=O)N[C@@H]([C@@H](C)O)C(=O)N1 | nM | 1.2
C[C@@H](O)[C@H](NC(=O)[C@@H]1CSSC[C@H](NC(=O)[C@@H](Cc2ccccc2)NC[C@]2(O)OC[C@H](O)[C@@H](O[C@@H]3O[C@@H](CO)[C@@H](O[C@@H]4O[C@@H](CO)[C@@H](O)[C@H](O)[C@@H]4O)[C@H](O)[C@@H]3O)[C@@H]2O)C(=O)N[C@@H](Cc2ccc(O)c(I)c2)C(=O)N[C@H](Cc2c[nH]c3ccccc23)C(=O)N[C@@H](CCCCN)C(=O)N[C@@H]([C@@H](C)O)C(=O)N1)C(=O)O | nM | 0.95
C[C@@H](O)[C@H](NC(=O)[C@@H]1CSSC[C@H](NC(=O)[C@@H](Cc2ccccc2)NC[C@]2(O)OC[C@H](O)[C@@H](O[C@@H]3O[C@@H](CO)[C@@H](O)[C@H](O)[C@@H]3O)[C@@H]2O)C(=O)N[C@@H](Cc2ccc(O)c(I)c2)C(=O)N[C@H](Cc2c[nH]c3ccccc23)C(=O)N[C@@H](CCCCN)C(=O)N[C@@H]([C@@H](C)O)C(=O)N1)C(=O)O | nM | 0.78
C[C@@H](O)[C@H](CO)NC(=O)[C@@H]1CSSC[C@H](NC(=O)[C@@H](Cc2ccccc2)NC[C@]2(O)OC[C@H](O)[C@@H](O[C@@H]3O[C@@H](CO)[C@@H](O[C@@H]4O[C@@H](CO)[C@@H](O)[C@H](O)[C@@H]4O)[C@H](O)[C@@H]3O)[C@@H]2O)C(=O)N[C@@H](Cc2ccc(O)c(I)c2)C(=O)N[C@H](Cc2c[nH]c3ccccc23)C(=O)N[C@@H](CCCCN)C(=O)N[C@@H]([C@@H](C)O)C(=O)N1 | nM | 1.1

Read the next record carefully.
Request: I have this molecule here, `C[C@@H](O)[C@@H]1NC(=O)[C@H](CCCCN)NC(=O)[C@@H](Cc2c[nH]c3ccccc23)NC(=O)[C@H](Cc2ccc(O)c(I)c2)NC(=O)[C@@H](NC(=O)[C@@H](Cc2ccccc2)NC[C@]2(O)OC[C@H](O)[C@@H](O)[C@@H]2O)CSSC[C@@H](C(=O)N[C@H](CO)[C@@H](C)O)NC1=O` , and I need its recorded IC50.
Response: 2.2
